measured_on: Acetylcholinesterase (Rattus norvegicus)
Sequence (P37136 whole entry): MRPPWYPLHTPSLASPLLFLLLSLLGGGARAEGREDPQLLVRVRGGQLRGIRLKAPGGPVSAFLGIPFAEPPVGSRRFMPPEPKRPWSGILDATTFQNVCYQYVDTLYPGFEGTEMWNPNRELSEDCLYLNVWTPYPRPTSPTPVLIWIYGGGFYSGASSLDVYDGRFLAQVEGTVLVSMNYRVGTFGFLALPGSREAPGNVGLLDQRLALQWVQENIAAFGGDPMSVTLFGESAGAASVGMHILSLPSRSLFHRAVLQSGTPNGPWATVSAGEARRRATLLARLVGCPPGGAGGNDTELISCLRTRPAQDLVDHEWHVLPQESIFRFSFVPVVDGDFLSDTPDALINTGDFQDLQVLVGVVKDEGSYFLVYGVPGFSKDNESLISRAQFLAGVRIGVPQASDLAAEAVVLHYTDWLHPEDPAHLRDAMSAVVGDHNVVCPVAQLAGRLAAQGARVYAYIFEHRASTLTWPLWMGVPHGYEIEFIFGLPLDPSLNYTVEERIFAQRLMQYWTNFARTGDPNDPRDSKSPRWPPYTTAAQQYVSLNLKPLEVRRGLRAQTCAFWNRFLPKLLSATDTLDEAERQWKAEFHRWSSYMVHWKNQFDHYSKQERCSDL
protocol_text: Inhibition of AChE in rat brain Cerebellum
Type: tissue-based
quantity_kind: pIC50
Friendly reminder that pIC50 comes from taking -log10 of the concentration in mol/L.

Ask | State pIC50 on Acetylcholinesterase (Rattus norvegicus). Entry: "C[N+](C)(C)[C@@H](Cc1c[nH]c2ccccc12)C(=O)O.[Cl-]"
Reply | 4.73

Ask | State pIC50 (Acetylcholinesterase (Rattus norvegicus)) of "C[N+](C)(C)[C@H](Cc1c[nH]c2ccccc12)C(=O)O.[Cl-]" .
Reply | 4.72

Ask | Print Acetylcholinesterase (Rattus norvegicus) pIC50 for CN(C)C(=O)Oc1cccc([N+](C)(C)C)c1.[Br-] [NEOSTIGMINE BROMIDE] .
Reply | 4.43

Values compiled from ChEMBL document CHEMBL4819153.
